tested.target: Full length wild-type cereblon CRBN (Homo sapiens)
Construct: Full length wild-type cereblon CRBN (80.0 nM, 10 μL) was incubated in assay buffer
Sequence (Q96SW2 whole entry): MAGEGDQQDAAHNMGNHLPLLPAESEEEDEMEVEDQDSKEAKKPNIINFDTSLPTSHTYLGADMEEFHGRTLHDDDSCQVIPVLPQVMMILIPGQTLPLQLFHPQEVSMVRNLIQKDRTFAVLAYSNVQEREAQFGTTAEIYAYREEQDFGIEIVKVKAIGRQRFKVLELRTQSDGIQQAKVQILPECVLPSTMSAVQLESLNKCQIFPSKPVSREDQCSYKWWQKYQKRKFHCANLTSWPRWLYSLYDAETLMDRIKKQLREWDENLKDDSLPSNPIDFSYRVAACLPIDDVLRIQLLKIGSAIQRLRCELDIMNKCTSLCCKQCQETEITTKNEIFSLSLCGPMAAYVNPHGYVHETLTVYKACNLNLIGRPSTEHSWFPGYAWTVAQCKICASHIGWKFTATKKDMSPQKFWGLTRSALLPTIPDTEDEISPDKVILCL
test.description: Fluorescence polarization (FP) assay indicating cereblon binding
particulars: cereblon binding, CRBN 80.0 nM, probe 5 nM, FP read after 12 hours; read-out: rFP IC50
property.name: IC50

| compound | IC50 |
| --- | --- |
| O=C1CCC(N2Cc3ccc(CCC(=O)Nc4ccc(N5CCCCC5)nc4)cc3C2=O)C(=O)N1 (centres unmarked) | 500 to 1100 nM |
| O=C1CCC(N2Cc3ccc(CCC(=O)NC4CCN(c5ccccn5)CC4)cc3C2=O)C(=O)N1 (centres unmarked) | 500 to 1100 nM |
| O=C1CCC(N2Cc3ccc(CCC(=O)Nc4ccc(F)c(OC(F)F)c4)cc3C2=O)C(=O)N1 (centres unmarked) | 500 to 1100 nM |
| Cc1c(CN2CCOCC2)cc(NC(=O)CCc2ccc3c(c2)C(=O)N(C2CCC(=O)NC2=O)C3)cc1OC(F)(F)F (centres unmarked) | 500 to 1100 nM |
| O=C1CCC(N2Cc3ccc(CCC(=O)Nc4cc(CN5CCOCC5)cc(OC(F)F)c4)cc3C2=O)C(=O)N1 (centres unmarked) | > 1700 nM |

Prompt: Name the reported IC50 value associated with the compound CN1CCC(COc2cc(Cl)cc(NC(=O)CCc3ccc4c(c3)C(=O)N(C3CCC(=O)NC3=O)C4)c2)C1 (centres unmarked)
Completion: 500 to 1100 nM

Prompt: Also O=C1CCC(N2Cc3ccc(CCC(=O)Nc4cc(F)cc(Cl)c4)cc3C2=O)C(=O)N1 (centres unmarked) , if possible.
Completion: > 1700 nM

Prompt: Also O=C1CCC(N2Cc3ccc(CCC(=O)Nc4ccc(C5CC5)cc4)cc3C2=O)C(=O)N1 (centres unmarked) , if possible.
Completion: ≤ 500 nM

Prompt: Also Cc1cc(C)cc(NC(=O)CCc2ccc3c(c2)C(=O)N(C2CCC(=O)NC2=O)C3)c1 (centres unmarked) , if possible.
Completion: 500 to 1100 nM

Prompt: Also Cc1ccc(NC(=O)CCc2ccc3c(c2)C(=O)N(C2CCC(=O)NC2=O)C3)cc1OC(F)F (centres unmarked) , if possible.
Completion: 1100 to 1700 nM

Prompt: Also O=C1CCC(N2Cc3ccc(CCC(=O)Nc4cc(Cl)cc(OCC5CCNC5)c4)cc3C2=O)C(=O)N1 (centres unmarked) , if possible.
Completion: 500 to 1100 nM

Prompt: Also O=C1CCC(N2Cc3ccc(CCC(=O)Nc4ccc(-c5ccccn5)cc4)cc3C2=O)C(=O)N1 (centres unmarked) , if possible.
Completion: 500 to 1100 nM

Prompt: Also CC1(c2ccc(NC(=O)CCc3ccc4c(c3)C(=O)N(C3CCC(=O)NC3=O)C4)cc2)COC1 (centres unmarked) , if possible.
Completion: 1100 to 1700 nM

Prompt: Also Cc1c(Cl)cc(NC(=O)COc2ccc3c(c2)C(=O)N(C2CCC(=O)NC2=O)C3)cc1CN1CCOCC1 (centres unmarked) , if possible.
Completion: ≤ 500 nM

Prompt: Also COc1cc(C)c(Cl)cc1NC(=O)CCc1ccc2c(c1)C(=O)N(C1CCC(=O)NC1=O)C2 (centres unmarked) , if possible.
Completion: 500 to 1100 nM

Prompt: Also Cc1c(Cl)cc(NC(=O)CCc2ccc3c(c2)C(=O)N(C2CCC(=O)NC2=O)C3)cc1CN1CC2CCC(C1)O2 (centres unmarked) , if possible.
Completion: 1100 to 1700 nM

Prompt: Also O=C1CCC(N2Cc3ccc(CCC(=O)Nc4cc(OC(F)(F)F)ccn4)cc3C2=O)C(=O)N1 (centres unmarked) , if possible.
Completion: 500 to 1100 nM

Prompt: Also O=C1CCC(N2Cc3ccc(CCC(=O)N4CCCC4)cc3C2=O)C(=O)N1 (centres unmarked) , if possible.
Completion: 1100 to 1700 nM

Prompt: Also COc1ccc(Cl)cc1NC(=O)CCc1ccc2c(c1)C(=O)N(C1CCC(=O)NC1=O)C2 (centres unmarked) , if possible.
Completion: 500 to 1100 nM

Prompt: Also O=C1CCC(N2Cc3ccc(CCC(=O)Nc4cc(F)cc(OC(F)F)c4)cc3C2=O)C(=O)N1 (centres unmarked) , if possible.
Completion: 500 to 1100 nM
